Origin of values: PubChem BioAssay (NCI)

test system: MALME-3M melanoma; test: NCI tumour cell line growth inhibition, 48 h
Please respond with reported TGI for every item in the list.
Give bare numbers, in µM.

Known results for compounds:
Q: Assign TGI to the following record: Nc1cc2[nH]c(=O)c3cc(Cl)ccc3c2cc1Cl
Result: 44.6

Q: Assign TGI to the following record: COc1ccc(/C=C2\CC(C)CC3C2=NN(C(C)=O)C3c2ccc(OC)c(OC)c2)cc1OC (stereo unspecified)
Result: 36.3

Could you now look at the following compound, please?
Q: Assign TGI to the following record: CC1SC(c2cccc(Oc3ccccc3)c2)N(CCc2cccs2)C1=O (stereo unspecified)
Result: 3.58

====

test system: MDA-MB-231 breast; assay: NCI tumour cell line growth inhibition, 48 h
measureName: TGI (µM)
One number for each entry, in µM.

Q: Assign TGI to the following record: COc1cc2c(cc1C)NC(=O)/C2=C/c1c(Cl)n(C)c2ccccc12
Result: 65.1

Q: Assign TGI to the following record: Cc1ccc(SCN2CCCCC2)cc1 (tested in a mixture with another compound)
Result: 27.7

Could you now look at the following molecule, please?
Q: Assign TGI to the following record: Cc1cc(N2CCOCC2)nc(N(CCNc2ccnc3cc(Cl)ccc23)Cc2cccs2)n1
Result: 3.64

====

test system: A549 NSCLC; experiment: NCI tumour cell line growth inhibition, 48 h
Please respond with reported GI50 for every item in the list.

Known results for compounds:
Q: Assign GI50 to the following record: C[As](C)SCC(COC(=O)c1ccccc1)OC(=O)c1ccccc1 (stereo unspecified)
Result: 1450 nM

Q: Assign GI50 to the following record: CN1CCN(Cc2ccc(NC(=O)c3cncc(C#Cc4c(N)ncc5ccc(F)cc45)c3)cc2C(F)(F)F)CC1
Result: 960 nM

Q: Assign GI50 to the following record: COc1cc2c(cc1Nc1nc(Nc3ccsc3C(N)=O)c3cc[nH]c3n1)N(C(=O)CN(C)C)CCC2
Result: 636 nM

Q: Assign GI50 to the following record: CCN(CC)CCC(CNc1c2ccc(Cl)cc2nc2ccc(OC)cc12)c1ccccc1 (stereo unspecified)
Result: 1510 nM

Q: Assign GI50 to the following record: Cc1ccc(S(=O)(=O)NC(CCCCN)C(=O)CCl)cc1 (stereo unspecified)
Result: > 100000 nM

Others:
Q: Assign GI50 to the following record: Cc1nn(-c2ccccc2)c2ncc3c(c12)C(=O)N(Cc1ccccc1)C3=O
Result: 5250 nM

====

system: SK-MEL-2 melanoma; assay: NCI tumour cell line growth inhibition, 48 h
Please respond with reported TGI for every item in the list.

Q: Assign TGI to the following record: O=C1NC(N2CCCC(CO)C2)=N/C1=C\c1ccc(O)cc1 (stereo not given)
Result: > 100 µM

Q: Assign TGI to the following record: CN1C(=N\S(=O)(=O)c2ccc(Cl)cc2)/C(=N/N=P(c2ccccc2)(c2ccccc2)c2ccccc2)c2ccccc21
Result: > 100 µM

Q: Assign TGI to the following record: COc1cc2c(oc(=O)c3c4oc([Si](C)(C)C)cc4cc(OC)c23)c2cccc(O)c12
Result: > 100 µM

Q: Assign TGI to the following record: CC(C)NC(=O)OCc1c(COC(=O)NC(C)C)c(-c2ccc[n+](COC(=O)C3CCCCC3)c2)n2c1CCC2
Result: > 100 µM

Q: Assign TGI to the following record: O=C(O)CCCCCNC(=O)CCC(CN(CC(=O)OCc1ccccc1)CC(=O)OCc1ccccc1)N(CC(=O)OCc1ccccc1)CC(=O)OCc1ccccc1 (stereo not given)
Result: 32 µM

Below are 5 molecules. Give each one its TGI.
1. COC(=O)c1ccc2[nH]c3c(c2c1)CC(=O)Nc1ccccc1-3
2. O=C(Nc1cccc(Cl)c1)c1cc2cc(N=Nc3ccc(Br)cc3)ccc2oc1=O
3. Nc1n[nH]c(=O)c2c1c(Br)cn2C1OC(CO)C(O)C1O (stereo not given)
4. COC(=O)C1CCC2(CC1)NC(=O)NC2=O (stereo not given)
5. C#Cc1cccc(NC(=O)Nc2cccc(NC(=O)CCl)c2)c1

Result:
["> 100 µM", "52.7 µM", "41.4 µM", "> 100 µM", "> 82.5 µM"]

====

tested on: OVCAR-4 ovarian; experiment: NCI tumour cell line growth inhibition, 48 h; in the data active = GI50 below about 0.43 µM; inactive = the rest
Could you please pick one outcome from this set? active, inactive

Study these solved cases before continuing.
Q: What call does the record list for CN(C)CCCn1c2c(c3ccncc3c1=O)C(=O)c1ccccc1-2 ?
Result: inactive

Q: What call does the record list for Cc1cccc(NC(=O)c2sc3nc4c(cc3c2N)CCC4)c1C ?
Result: inactive

Q: What call does the record list for O=C(/C=C/CN1CCCCC1)Nc1cc2c(Nc3ccc(F)c(Cl)c3F)ncnc2cc1OCCOC(F)F ?
Result: inactive

Others:
Q: What call does the record list for COc1ccc(/C=C2\CC(C)CC3C2=NN(C(C)=O)C3c2ccc(OC)c(OC)c2)cc1OC (stereo not drawn) ?
Result: inactive

Q: What call does the record list for Cn1cc(C2=C(c3cn(CCCSC(=N)N)c4ccccc34)C(=O)NC2=O)c2ccccc21 ?
Result: inactive

Q: What call does the record list for Nc1cc(N)c2nc(-c3ccccc3)c(Sc3ccc(F)cc3)nc2c1 ?
Result: inactive

Q: What call does the record list for CN(C)c1ccc(/C=C/C(=O)c2ccc(Nc3nc(Nc4ccc(F)cc4)nc(Nc4ccc(Cl)cc4)n3)cc2)cc1 ?
Result: inactive

Q: What call does the record list for O=C(CCc1nnc2s/c(=C\c3ccc(Cl)cc3Cl)c(=O)n12)Nc1cc(Cl)c(Cl)cc1Cl ?
Result: inactive

Q: What call does the record list for CCOC(=O)C(Cc1ccc(N(CCCl)CCCl)cc1)NC(=O)C(CC(C)C)NC(C)=O (stereo not drawn) ?
Result: inactive

Q: What call does the record list for COC(=O)[C@@H](C)C[C@H](Cc1ccccc1)NC(=O)c1cccc([C@@H](C[C@H](C(C)C)N(C)C(=O)[C@@H](NC(=O)[C@H]2CCCCN2C)C(C)C)OC(C)=O)n1 ?
Result: active

====

test system: MOLT-4 leukemia; test: NCI tumour cell line growth inhibition, 48 h; in the data active means GI50 below about 0.43 µM; inactive means the rest
Could you please pick one outcome from this set? active, inactive

Study these solved cases before continuing.
Q: What call does the record list for COc1ccc2c(c1)CCC1C2CCC2(C)C1CC[C@@]2(O)CNC(=O)/C=C/c1ccc(O)c(O)c1 (some centres undefined) ?
Result: active

Q: What call does the record list for N#Cc1c(-c2ccc(Cl)cc2)n([O-])c2ccccc2[n+]1=O ?
Result: inactive

Q: What call does the record list for Cc1cc(N2CCOCC2)nc(N(CCNc2ccnc3cc(Cl)ccc23)Cc2cccs2)n1 ?
Result: inactive

Now, please, on to the next molecule.
Q: What call does the record list for CCOC(=O)C(Cc1ccc(N(CCCl)CCCl)cc1)NC(=O)C(CC(C)C)NC(C)=O (centres undefined) ?
Result: active

====

system: HCT-116 colon; test: NCI tumour cell line growth inhibition, 48 h
Please respond with reported TGI for every item in the list.

Known results for molecules:
Q: Assign TGI to the following record: CN1C(=N\S(=O)(=O)c2ccc(Cl)cc2)/C(=N/N=P(c2ccccc2)(c2ccccc2)c2ccccc2)c2ccccc21
Result: > 100 µM

Q: Assign TGI to the following record: CC(=O)CC(=O)Nn1c(-c2cccs2)nc2ccc(I)cc2c1=O
Result: > 100 µM

Q: Assign TGI to the following record: CC(C)(C)C(=O)C(C#N)C(=O)C(C)(C)C
Result: > 100 µM

Q: Assign TGI to the following record: COc1ccc2nccc(C3OC(=O)N4CCC(=O)CC34)c2c1 (stereo not given)
Result: > 100 µM

Q: Assign TGI to the following record: CCO/C=N/C1=C(C#N)C(c2ccc(OC)c(OC)c2)c2c(-c3ccccc3)nn(-c3ccccc3)c2O1 (stereo not given)
Result: 28.3 µM

Q: Assign TGI to the following record: Cc1cn2cc(-c3ccncc3)nc2s1
Result: > 100 µM

Q: Assign TGI to the following record: CC(=O)NC1C(=O)CC(c2ccccc2)N(C)C1c1ccccc1 (stereo not given)
Result: > 100 µM

Q: Assign TGI to the following record: C[Si](C)(C)C1=C2C(=O)c3ccccc3C(=O)C2=C([Si](C)(C)C)[C@@H]2CCCC[C@H]12
Result: > 100 µM

Q: Assign TGI to the following record: CN(C)/C=C/c1ccnc2c1C(=O)c1ccccc1C2=O
Result: 20.9 µM

Could you now look at the following molecule, please?
Q: Assign TGI to the following record: N#Cc1c(-c2ccc(Cl)cc2)n([O-])c2ccccc2[n+]1=O
Result: 11.1 µM

====

tested on: A498 renal; assay: NCI tumour cell line growth inhibition, 48 h; in the data active = GI50 below about 0.43 µM; inactive = the rest
Could you please pick one outcome from this set? 1 for active, -1 for inactive

Study these solved cases before continuing.
Q: What call does the record list for C[As](C)SCC(COC(=O)c1ccccc1)OC(=O)c1ccccc1 (stereo not drawn) ?
Result: 1

Q: What call does the record list for CN1CCN(Cc2ccc(NC(=O)c3cncc(C#Cc4c(N)ncc5ccc(F)cc45)c3)cc2C(F)(F)F)CC1 ?
Result: 1

Q: What call does the record list for CC(=O)CC(=O)Nn1c(-c2cccs2)nc2ccc(I)cc2c1=O ?
Result: -1

Q: What call does the record list for CN(C)CCCn1c2c(c3ccncc3c1=O)C(=O)c1ccccc1-2 ?
Result: -1

Q: What call does the record list for CCS(=O)(=O)Nc1ccc(Oc2ccc(F)cc2F)c(-c2cn(C)c(=O)c3[nH]ccc23)c1 ?
Result: 1

Q: What call does the record list for COC(=O)c1cc2c([nH]c3ccccc32)c(-c2nc3cc(N(S(=O)(=O)c4ccc(C)cc4)S(=O)(=O)c4ccc(C)cc4)c(OC)cc3cc2CO)n1 ?
Result: -1

Q: What call does the record list for O=C(/C=C/CN1CCCCC1)Nc1cc2c(Nc3ccc(F)c(Cl)c3F)ncnc2cc1OCCOC(F)F ?
Result: 1

Q: What call does the record list for COc1ccc(C(=O)CC(Cl)=C(Cl)Cl)cc1 ?
Result: -1

Q: What call does the record list for CC(=O)OC1C(OC/C2=C/C3[C@@H](C(C)C)CC=C(C)[C@@H]3CC(OC(=O)/C=C/c3cn(C)cn3)[C@]3(C)C=C[C@@]2(O)O3)OCC(O)C1O (stereo partly drawn) ?
Result: 1

Q: What call does the record list for COc1cc(C2C3=C(COC3=O)N(CCO)c3cc4c(cc32)CCC4)cc(OC)c1OC (stereo not drawn) ?
Result: 1

Others:
Q: What call does the record list for O=C1/C(=C/c2ccc([N+](=O)[O-])s2)Oc2ccc(Cl)cc21 ?
Result: -1

Q: What call does the record list for COc1ccc(C2CC(c3cccc(Nc4ccnc5cc(Cl)ccc45)c3)=NN2c2ccc(Cl)cc2)cc1 (stereo not drawn) ?
Result: -1

Q: What call does the record list for CN(C)c1ccc(/C=C/C(=O)c2ccc(Nc3nc(Nc4ccc(F)cc4)nc(Nc4ccc(Cl)cc4)n3)cc2)cc1 ?
Result: -1
